# measurement_description: HCT116 colon cancer cell growth inhibition, primary screen, CellTiter-Glo luminescence, NPC library (AID 1117342)
# condition: at 20 µM (top of the series)
Active and inactive are the calls of the source.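 Rule for the calls: active = compounds that lower survival of HCT116 colon cancer cells in the luminescence readout, no numeric limit stated; inactive = the rest.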
Returns: one label drawn from true (active), false (inactive)

COc1ccccc1N1CCN(CC(O)COc2cc(OC)c(OC)c(OC)c2)CC1 (stereo not drawn)
false

Query :: Entry CN(C)CCCN1c2ccccc2Sc2ccc(Cl)cc21 : call = ?
Result :: true

Query :: Each compound tested received a call. Report the one for NC12CC3CC(CC(C3)C1)C2 .
Result :: false

* * *

# measurement_description: stimulators of nuclear beta-catenin in C2C12, primary screen, imaging, WNT3A-conditioned medium, mouse C2C12, NPC library (AID 1117326); note: reference of the scale not given here
# condition: stimulation, at 2 µM, stronger effect = higher value
quantity: nuclear beta-catenin stimulation (%)
One number for each entry, in %.

Check out these entries, answers already filled in.
O=C(OCCN1CCOCC1)c1cccnc1Nc1cccc(C(F)(F)F)c1
-0.8
COc1ccc2cc(C=O)ccc2c1
0.2
CC(C)[C@H]1CC[C@H](C)C[C@H]1O
-0.8

Items follow; give nuclear beta-catenin stimulation for each.
1. CC(C)(C)c1ccc(C(=O)CCCCl)cc1
2. Nc1ccc(/C=C/c2ccc(N)cc2S(=O)(=O)O)c(S(=O)(=O)O)c1
3. Nc1ccncc1N
4. CCC(=O)Nc1ccc(O)cc1

Result ::
0.6
0.9
0.5
1.9

Batch lookup, nuclear beta-catenin stimulation per entry.
1. Nc1ccc(C(=O)Nc2ccccc2N)cc1
2. CC(=O)O[C@H]1C[C@@H]2CC[C@H]3[C@H]4C[C@H]([N+]5(C)CCCCC5)[C@@H](OC(C)=O)[C@@]4(C)CC[C@@H]3[C@@]2(C)C[C@H]1[N+]1(C)CCCCC1
3. CCN(CC)C(=O)C1CN2CCc3cc(OC)c(OC)cc3C2CC1OC(C)=O (stereo not given)
4. Cc1c(C)c2c(c(C)c1OC(=O)CCC(=O)OCCO)CC[C@@](C)(CCC[C@H](C)CCC[C@H](C)CCCC(C)C)O2
5. CN1CCC[C@@H]1c1cccnc1

Result ::
1: 1.9; 2: 0.2; 3: 1.3; 4: -0.6; 5: 1.5

For the 3 molecules below, give their nuclear beta-catenin stimulation values.
1. CCCCCCCCCCCC(=O)[O][Sn]([CH2]CCC)([CH2]CCC)[O]C(=O)CCCCCCCCCCC
2. c1ccc(CCNc2nc(-c3ccccc3)cs2)cc1
3. Cc1nc2n(c(=O)c1CCN1CCC(C(=O)c3ccc(F)cc3)CC1)CCS2

Result ::
7.2
0.6
-0.8

* * *

# measurement_description: CellTiter-Glo luminescent readout of SW480 viability loss, NPC library primary (AID 1117343)
# condition: CellTiter-Glo luminescence; at 20 µM (top of the series)
Can you tell me viability decrease (inhibition) for the items I'm about to list?
Give bare numbers, in %.

N#C[C@H]1C[C@H]2C[C@@H]2N1C(=O)[C@@H](N)C12CC3CC(CC(O)(C3)C1)C2
9.8

For each of the compounds below, note its viability decrease (inhibition).
1. CN1CCC(N(Cc2cccs2)c2ccccc2)CC1
2. CC[N+](CC)(CC)CCOC(=O)C(C1CCCC1)C1CCCC1
3. CCCCCCCCCCCCCCCC(=O)OCC(COC(=O)CCCCCCCCCCCCCCC)OC(=O)CCCCCCCCCCCCCCC
4. c1ccc2c(CC3=NCCN3)cccc2c1

Result ::
72.8
-14.4
2.7
19.7
